meta.source: ChEMBL document CHEMBL1153602

- Test system: Nucleic Acid
- TEST: Binding affinity to poly(dA).poly(dT) duplex DNA assessed as change in thermal melting temperature at compound to DNA ratio of 1 by UV-vis spectroscopy
- Assay type: nucleic-acid assay
Think of 20 °C as a floor: if ΔTm stands on it or above, it is fulfilled; beneath it, not fulfilled.

{"STRUCTURE": "CN(C)CCCNC(=O)c1cc2c3ccccc3[nH]c2c2sccc12", "ASSIGNED CATEGORY": "fulfilled"}
{"STRUCTURE": "CN(C)CCNC(=O)c1cc2c3cc(Cl)ccc3[nH]c2c2ncccc12", "ASSIGNED CATEGORY": "fulfilled"}
{"STRUCTURE": "CN(C)CCCNC(=O)c1cc2c3cccc(Cl)c3[nH]c2c2ncccc12", "ASSIGNED CATEGORY": "fulfilled"}
{"STRUCTURE": "CN(C)CCNC(=O)c1cc2c3ccccc3[nH]c2c2ncccc12", "ASSIGNED CATEGORY": "not fulfilled"}
{"STRUCTURE": "CN(C)CCCNC(=O)c1cc2c3cc(Cl)ccc3[nH]c2c2ncccc12", "ASSIGNED CATEGORY": "fulfilled"}
{"STRUCTURE": "O=C(NCCCN1CCOCC1)c1cc2c3cccc(Cl)c3[nH]c2c2ncccc12", "ASSIGNED CATEGORY": "not fulfilled"}
{"STRUCTURE": "CN(C)CCNC(=O)c1cc2c3cc(Cl)ccc3[nH]c2c2ccncc12", "ASSIGNED CATEGORY": "fulfilled"}
{"STRUCTURE": "CN(C)CCNC(=O)c1cc2c3cccc(Cl)c3[nH]c2c2ncccc12", "ASSIGNED CATEGORY": "not fulfilled"}
{"STRUCTURE": "CN(C)CCCNC(=O)c1cc2c3ccccc3[nH]c2c2ncccc12", "ASSIGNED CATEGORY": "not fulfilled"}
{"STRUCTURE": "CN(C)CCCNC(=O)c1cc2c3cc(Cl)ccc3[nH]c2c2ccncc12", "ASSIGNED CATEGORY": "fulfilled"}

---

- System: Nucleic Acid
- TEST: Binding affinity to pBS 117bp DNA by DnaseI footprinting assay
- Assay type: nucleic-acid assay
Activity calls are given as the source filed them. The calls are words filed in the database; no cut-off is given here.
Labels: yes (1) for active, no (0) for inactive

{"STRUCTURE": "CN(C)CCNC(=O)c1cc2c3ccccc3[nH]c2c2ncccc12", "MEASURED ON": "Nucleic Acid", "ASSIGNED CATEGORY": "yes (1)"}
{"STRUCTURE": "CN(C)CCCNC(=O)c1cc2c3ccccc3[nH]c2c2sccc12", "MEASURED ON": "Nucleic Acid", "ASSIGNED CATEGORY": "yes (1)"}
{"STRUCTURE": "CN(C)CCNC(=O)c1cc2c3cc(Cl)ccc3[nH]c2c2ncccc12", "MEASURED ON": "Nucleic Acid", "ASSIGNED CATEGORY": "yes (1)"}
{"STRUCTURE": "O=C(NCCCN1CCOCC1)c1cc2c3cccc(Cl)c3[nH]c2c2ncccc12", "MEASURED ON": "Nucleic Acid", "ASSIGNED CATEGORY": "no (0)"}
{"STRUCTURE": "CN(C)CCNC(=O)c1cc2c3cc(Cl)ccc3[nH]c2c2ccncc12", "MEASURED ON": "Nucleic Acid", "ASSIGNED CATEGORY": "yes (1)"}
{"STRUCTURE": "CN(C)CCCNC(=O)c1cc2c3cccc(Cl)c3[nH]c2c2ncccc12", "MEASURED ON": "Nucleic Acid", "ASSIGNED CATEGORY": "yes (1)"}
{"STRUCTURE": "CN(C)CCNC(=O)c1cc2c3cccc(Cl)c3[nH]c2c2ncccc12", "MEASURED ON": "Nucleic Acid", "ASSIGNED CATEGORY": "yes (1)"}
{"STRUCTURE": "CN(C)CCCNC(=O)c1cc2c3ccccc3[nH]c2c2ncccc12", "MEASURED ON": "Nucleic Acid", "ASSIGNED CATEGORY": "yes (1)"}
{"STRUCTURE": "CN(C)CCCNC(=O)c1cc2c3cc(Cl)ccc3[nH]c2c2ccncc12", "MEASURED ON": "Nucleic Acid", "ASSIGNED CATEGORY": "yes (1)"}
{"STRUCTURE": "CN(C)CCCNC(=O)c1cc2c3cc(Cl)ccc3[nH]c2c2ncccc12", "MEASURED ON": "Nucleic Acid", "ASSIGNED CATEGORY": "yes (1)"}

---

- Test system: Calf thymus DNA
- TEST: Binding affinity to calf thymus DNA assessed as change in melting temperature at a compound to DNA molar ratio of 0.5 by UV-vis spectroscopy
- Type: nucleic-acid assay
- CONDITION DETAILS: Bos taurus
Listed next: entries and their corresponding ΔTm.
PROPERTY NAME: ΔTm (°C)

{"STRUCTURE": "CN(C)CCCNC(=O)c1cc2c3ccccc3[nH]c2c2ncccc12", "MEASURED VALUE": 4.4}
{"STRUCTURE": "O=C(NCCCN1CCOCC1)c1cc2c3cccc(Cl)c3[nH]c2c2ncccc12", "MEASURED VALUE": 0.4}
{"STRUCTURE": "CN(C)CCNC(=O)c1cc2c3cccc(Cl)c3[nH]c2c2ncccc12", "MEASURED VALUE": 5.1}
{"STRUCTURE": "CN(C)CCNC(=O)c1cc2c3ccccc3[nH]c2c2ncccc12", "MEASURED VALUE": 2.9}
{"STRUCTURE": "CN(C)CCCNC(=O)c1cc2c3cc(Cl)ccc3[nH]c2c2ncccc12", "MEASURED VALUE": 8.8}
{"STRUCTURE": "CN(C)CCNC(=O)c1cc2c3cc(Cl)ccc3[nH]c2c2ncccc12", "MEASURED VALUE": 7.3}
{"STRUCTURE": "CN(C)CCCNC(=O)c1cc2c3cc(Cl)ccc3[nH]c2c2ccncc12", "MEASURED VALUE": 10.7}
{"STRUCTURE": "CN(C)CCNC(=O)c1cc2c3cc(Cl)ccc3[nH]c2c2ccncc12", "MEASURED VALUE": 11.2}
{"STRUCTURE": "CN(C)CCCNC(=O)c1cc2c3ccccc3[nH]c2c2sccc12", "MEASURED VALUE": 4.4}
{"STRUCTURE": "CN(C)CCCNC(=O)c1cc2c3cccc(Cl)c3[nH]c2c2ncccc12", "MEASURED VALUE": 10.4}

---

- Test system: Calf thymus DNA
- TEST: Binding affinity to calf thymus DNA assessed as change in melting temperature at a compound to DNA molar ratio of 0.25 by UV-vis spectroscopy
- Type: nucleic-acid assay
- CONDITION DETAILS: Bos taurus
PROPERTY NAME: ΔTm (°C)

{"STRUCTURE": "CN(C)CCCNC(=O)c1cc2c3ccccc3[nH]c2c2ncccc12", "MEASURED VALUE": 4.4}
{"STRUCTURE": "O=C(NCCCN1CCOCC1)c1cc2c3cccc(Cl)c3[nH]c2c2ncccc12", "MEASURED VALUE": 0.7}
{"STRUCTURE": "CN(C)CCNC(=O)c1cc2c3ccccc3[nH]c2c2ncccc12", "MEASURED VALUE": 3}
{"STRUCTURE": "CN(C)CCCNC(=O)c1cc2c3cc(Cl)ccc3[nH]c2c2ncccc12", "MEASURED VALUE": 7.4}
{"STRUCTURE": "CN(C)CCCNC(=O)c1cc2c3cc(Cl)ccc3[nH]c2c2ccncc12", "MEASURED VALUE": 6.6}
{"STRUCTURE": "CN(C)CCNC(=O)c1cc2c3cccc(Cl)c3[nH]c2c2ncccc12", "MEASURED VALUE": 1.5}
{"STRUCTURE": "CN(C)CCNC(=O)c1cc2c3cc(Cl)ccc3[nH]c2c2ncccc12", "MEASURED VALUE": 7.4}
{"STRUCTURE": "CN(C)CCNC(=O)c1cc2c3cc(Cl)ccc3[nH]c2c2ccncc12", "MEASURED VALUE": 7.9}
{"STRUCTURE": "CN(C)CCCNC(=O)c1cc2c3ccccc3[nH]c2c2sccc12", "MEASURED VALUE": 1.5}
{"STRUCTURE": "CN(C)CCCNC(=O)c1cc2c3cccc(Cl)c3[nH]c2c2ncccc12", "MEASURED VALUE": 5}

---

- Tested on: Nucleic Acid
- TEST: Binding affinity to poly(dA).poly(dT) duplex DNA assessed as change in thermal melting temperature at compound to DNA ratio of 0.5 by UV-vis spectroscopy
- Assay type: nucleic-acid assay
Listed next: entries and their corresponding ΔTm.
PROPERTY NAME: ΔTm (°C)

{"STRUCTURE": "CN(C)CCNC(=O)c1cc2c3cccc(Cl)c3[nH]c2c2ncccc12", "MEASURED VALUE": 13.6}
{"STRUCTURE": "CN(C)CCCNC(=O)c1cc2c3ccccc3[nH]c2c2sccc12", "MEASURED VALUE": 16.4}
{"STRUCTURE": "CN(C)CCCNC(=O)c1cc2c3ccccc3[nH]c2c2ncccc12", "MEASURED VALUE": 11.6}
{"STRUCTURE": "CN(C)CCCNC(=O)c1cc2c3cc(Cl)ccc3[nH]c2c2ccncc12", "MEASURED VALUE": 22.7}
{"STRUCTURE": "CN(C)CCNC(=O)c1cc2c3cc(Cl)ccc3[nH]c2c2ncccc12", "MEASURED VALUE": 18.9}
{"STRUCTURE": "CN(C)CCNC(=O)c1cc2c3ccccc3[nH]c2c2ncccc12", "MEASURED VALUE": 14.5}
{"STRUCTURE": "O=C(NCCCN1CCOCC1)c1cc2c3cccc(Cl)c3[nH]c2c2ncccc12", "MEASURED VALUE": 5.3}
{"STRUCTURE": "CN(C)CCCNC(=O)c1cc2c3cccc(Cl)c3[nH]c2c2ncccc12", "MEASURED VALUE": 23.6}
{"STRUCTURE": "CN(C)CCNC(=O)c1cc2c3cc(Cl)ccc3[nH]c2c2ccncc12", "MEASURED VALUE": 24.7}
{"STRUCTURE": "CN(C)CCCNC(=O)c1cc2c3cc(Cl)ccc3[nH]c2c2ncccc12", "MEASURED VALUE": 20.4}
